Target: Mcl-1/Bim interaction, recombinant human Mcl-1 (171-327) (Homo sapiens, UniProt Q07820)
Construct: made in house
Sequence (Q07820 171-327): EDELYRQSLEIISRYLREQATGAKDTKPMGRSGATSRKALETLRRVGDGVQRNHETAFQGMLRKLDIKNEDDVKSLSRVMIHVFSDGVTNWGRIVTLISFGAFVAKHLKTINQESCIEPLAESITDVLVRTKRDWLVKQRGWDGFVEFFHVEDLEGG
Assay: Cell free Mcl-1: Bim Affinity Assay (Mcl-1 HTRF)
Assay type: binding
Conditions: TR-FRET, 0.1 nM Mcl-1 (171-327), 0.05 nM biotin-Bim (51-76)
pIC50: −log10 of the molar value.
// label = satisfied if pIC50 is not less than 9, otherwise not satisfied

Consider the worked cases shown below.
compound	assay system	category
O=C1NS(=O)(=O)N(CC2COC2)CC/C=C/[C@H](O)[C@@H]2CC[C@H]2CN2C[C@@]3(CCCc4cc(Cl)ccc43)COc3ccc1cc32 [Example 40]	Mcl-1/Bim interaction, recombinant human Mcl-1 (171-327) (Homo sapiens, UniProt Q07820)	satisfied
C[C@@H]1[C@@H](C)C[C@H](CCN2CCOCC2)/C=C/[C@@H]2CC[C@H]2CN2C[C@@]3(CCCc4cc(Cl)ccc43)COc3ccc(cc32)C(=O)NS1(=O)=O [Example 115]	Mcl-1/Bim interaction, recombinant human Mcl-1 (171-327) (Homo sapiens, UniProt Q07820)	not satisfied
CCC1CCC=CC(OC2CCOC2=O)C2CCC2CN2CC3(CCCc4cc(Cl)ccc43)COc3ccc(cc32)C(=O)NS1(=O)=O (single isomer, unassigned) [Example 424]	Mcl-1/Bim interaction, recombinant human Mcl-1 (171-327) (Homo sapiens, UniProt Q07820)	satisfied
COCCO[C@H]1/C=C/C(C)C[C@@H](COC)S(=O)(=O)NC(=O)c2ccc3c(c2)N(C[C@@H]2CC[C@H]21)C[C@@]1(CCCc2cc(Cl)ccc21)CO3 (single isomer, unassigned) [Example 1039]	Mcl-1/Bim interaction, recombinant human Mcl-1 (171-327) (Homo sapiens, UniProt Q07820)	satisfied
O=C1NS(=O)(=O)C[C@H](CO)C/C=C/[C@H](O)[C@@H]2CC[C@H]2CN2C[C@@]3(CCCc4cc(Cl)ccc43)COc3ccc1cc32 [Example 1085]	Mcl-1/Bim interaction, recombinant human Mcl-1 (171-327) (Homo sapiens, UniProt Q07820)	not satisfied
O=C1NS(=O)(=O)[C@H]2CCCC[C@@H]2C/C=C/[C@H](O)[C@@H]2CC[C@H]2CN2C[C@@]3(CCCc4cc(Cl)ccc43)COc3ccc1cc32 (single isomer, unassigned) [Example 332]	Mcl-1/Bim interaction, recombinant human Mcl-1 (171-327) (Homo sapiens, UniProt Q07820)	not satisfied
CO[C@H]1/C=C/CC[C@@H](C(=O)N(C)C)S(=O)(=O)NC(=O)c2ccc3c(c2)N(C[C@@H]2CC[C@H]21)C[C@@]1(CCCc2cc(Cl)ccc21)CO3 (single isomer, unassigned) [Example 452]	Mcl-1/Bim interaction, recombinant human Mcl-1 (171-327) (Homo sapiens, UniProt Q07820)	satisfied

Hello, I need to know if COCCOCCOCCOCCO[C@H]1/C=C/C[C@H](C)[C@@H](C)S(=O)(=O)NC(=O)c2ccc3c(c2)N(C[C@@H]2CC[C@H]21)C[C@@]1(CCCc2cc(Cl)ccc21)CO3 [Example 379] has measured pIC50 not below 9. Thanks!
satisfied

* * *

Items are presented alongside their recorded pIC50.
Biological target: Mcl-1/Bim interaction, recombinant human Mcl-1 (171-327) (Homo sapiens)
Construct: made in house
Assay: Cell free Mcl-1: Bim Affinity Assay (Mcl-1 HTRF)
Assay type: binding
Settings: TR-FRET, 0.1 nM Mcl-1 (171-327), 0.05 nM biotin-Bim (51-76)
Answer as the number alone; pIC50 is minus log10 of concentration in mol/L.

> print(dat)
                                   molecule                              assay.system  measured.value
1  C[C@@H]1CC/C=C/[C@H](OCc2cnnn2C)[C@@H]2CC[C@H]2CN2C[C@@]3(CCCc4cc(Cl)ccc43)COc3ccc(cc32)C(=O)NS1(=O)=O  Mcl-1/Bim interaction, recombinant human Mcl-1 (171-327) (Homo sapiens)            9.42

What measured pIC50 goes with C[C@@H]1[C@@H](C)C=C/C=C/[C@@H]2CC[C@H]2CN2C[C@@]3(CCCc4cc(Cl)ccc43)COc3ccc(cc32)C(=O)NS1(=O)=O (stereo in doubt) ?
8.02

What measured pIC50 goes with CS(=O)(=O)CCO[C@@H]1/C=C/CCCS(=O)(=O)NC(=O)c2ccc3c(c2)N(C[C@@H]2CC[C@H]21)C[C@@]1(CCCc2cc(Cl)ccc21)CO3 ?
8.89
